tgt: RAD52-ssDNA interaction (Homo sapiens, UniProt P43351)
Construct: made in house
experimentSummary: FRET-based ssDNA binding and wrapping assay (RAD52-Cy3-dT30-Cy5 complex)
runParameters: ssDNA; 1 nM Cy3-dT30-Cy5, 8 nM RAD52
Counter-ions that a name gives are not always drawn.
measuredParameter: FRET value at saturation

{"columns": ["compound", "measuredParameter", "value"],
 "data": [
  ["O=c1c(O)c(-c2ccc(O)c(O)c2)oc2c(O)c(O)cc(O)c12", "FRET value at saturation", 0.49],
  ["COc1cc(N)c(Cl)cc1C(=O)NC1CCN(CCCOc2ccc(F)cc2)CC1OC (centres unmarked) [Compound 16, Cisapride Monohydrate]", "FRET value at saturation", 0.50],
  ["NCCc1cc(O)c(O)cc1O", "FRET value at saturation", 0.50],
  ["Oc1cc(O)c2c(c1)O[C@H](c1ccc(O)c(O)c1)[C@H](O)C2 [Compound 7, (−)−Epicatechin]", "FRET value at saturation", 0.51],
  ["C=C1c2cccc(O)c2C(=O)C2=C(O)[C@]3(O)C(=O)C(C(N)=O)=C(O)[C@@H](N(C)C)[C@@H]3[C@@H](O)[C@H]12 [Compound 3, Methacycline Hydrochloride]", "FRET value at saturation", 0.47]
]}

---

tgt: RAD52-ssDNA interaction (Homo sapiens)
Construct: made in house
Sequence (P43351 1-418): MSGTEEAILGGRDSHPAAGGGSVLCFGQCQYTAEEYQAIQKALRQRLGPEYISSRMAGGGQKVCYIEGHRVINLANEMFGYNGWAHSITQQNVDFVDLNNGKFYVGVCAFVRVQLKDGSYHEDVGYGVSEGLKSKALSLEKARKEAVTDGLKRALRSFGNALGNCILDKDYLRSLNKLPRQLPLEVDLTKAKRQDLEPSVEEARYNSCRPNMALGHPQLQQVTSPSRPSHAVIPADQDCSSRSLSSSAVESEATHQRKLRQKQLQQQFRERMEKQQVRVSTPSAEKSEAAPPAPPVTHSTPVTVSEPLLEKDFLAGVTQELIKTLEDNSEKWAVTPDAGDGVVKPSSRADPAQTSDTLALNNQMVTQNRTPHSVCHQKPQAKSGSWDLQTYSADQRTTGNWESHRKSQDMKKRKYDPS
experimentSummary: FRET-based ssDNA binding and wrapping assay (RAD52-Cy3-dT30-Cy5 complex)
runParameters: ssDNA; 1 nM Cy3-dT30-Cy5, 8 nM RAD52
Reported FRET value at saturation values follow for various compounds
measuredParameter: FRET value at saturation

{"columns": ["compound", "value"],
 "data": [
  ["CN(C)[C@@H]1C(O)=C(C(=O)NCN2CCCC2)C(=O)[C@@]2(O)C(O)=C3C(=O)c4c(O)cccc4[C@@](C)(O)[C@H]3C[C@@H]12 [Compound 4, Rolitetracycline]", "0.56 ± 0.04"],
  ["O=C1c2ccc(O)c(O)c2C(=O)c2c(O)ccc(O)c21 [Compound 15, Quinalizarin]", "0.51 ± 0.01"],
  ["O=C(O[C@@H]1Cc2c(O)cc(O)cc2O[C@@H]1c1ccc(O)c(O)c1)c1cc(O)c(O)c(O)c1 [Compound 5, (−)−Epicatechin gallate]", "0.41 ± 0.004"]
]}

---

tgt: RAD52-ssDNA interaction (Homo sapiens, UniProt P43351)
Construct: made in house
experimentSummary: FRET-based ssDNA binding and wrapping assay (RAD52-Cy3-dT30-Cy5 complex)
runParameters: 1 nM Cy3-dT30-Cy5, 8 nM RAD52
Counter-ions that a name gives are not always drawn.
measuredParameter: IC50 range for inhibition of ssDNA binding, in words

{"columns": ["compound", "value"],
 "data": [
  ["O=C(O[C@@H]1Cc2c(O)cc(O)cc2O[C@@H]1c1ccc(O)c(O)c1)c1cc(O)c(O)c(O)c1 [Compound 5, (−)−Epicatechin gallate]", "nano-molar range"],
  ["C[C@H]1[C@H](C)CC[C@]2(C(=O)O)CC[C@]3(C)C(=CC[C@@H]4[C@@]5(C)C[C@@H](O)[C@H](O)[C@@](C)(CO)[C@@H]5CC[C@]43C)[C@H]12", "high micro-molar range"],
  ["NCCc1cc(O)c(O)cc1O", "nano-molar range"],
  ["O=C1c2ccc(O)c(O)c2C(=O)c2c(O)ccc(O)c21", "nano-molar range"],
  ["O=c1c(O)c(-c2ccc(O)c(O)c2)oc2c(O)c(O)cc(O)c12", "nano-molar range"],
  ["C=C1c2cccc(O)c2C(=O)C2=C(O)[C@]3(O)C(=O)C(C(N)=O)=C(O)[C@@H](N(C)C)[C@@H]3[C@@H](O)[C@H]12 [Compound 3, Methacycline Hydrochloride]", "micro-molar range"],
  ["CC1(C)C(=O)C=C[C@@]2(C)C1=C(O)C(=O)[C@]1(C)[C@@H]2CC[C@@]2(C)[C@H](c3ccoc3)C[C@H]3O[C@]321", "high micro-molar range"],
  ["Oc1cc(O)c2c(c1)O[C@H](c1ccc(O)c(O)c1)[C@H](O)C2 [Compound 7, (−)−Epicatechin]", "micro-molar range"]
]}

Where these numbers come from: paper PMC4982760
